# System: Salmonella enterica serovar Typhimurium SL1344
# measurement-protocol: normalized intracellular growth (luminescence, IQM-normalized) in RAW264.7 macrophages (fraction of plate interquartile mean); higher = more bacterial growth (less inhibition)
# protocol-conditions: 10 µM, time point: Tfinal (~6 h)
Whole data set: some 1,600 compounds, median “normalized intracellular growth (luminescence, IQM-normalized) in RAW264.7 macrophages” near 1, cut for the lowest 2% near 0.43. The full list was thinned out, with the lowest values kept by preference.
List of normalized intracellular growth values.
measure-name: normalized intracellular growth

>>> experimental_result("CC[C@H]1OC(=O)[C@H](C)[C@@H](O[C@H]2C[C@@](C)(OC)[C@@H](O)[C@H](C)O2)[C@H](C)[C@@H](O[C@@H]2O[C@H](C)C[C@H](N(C)C)[C@H]2O)[C@](C)(O)C[C@@H](C)/C(=N\\OCOCCOC)[C@H](C)[C@@H](O)[C@]1(C)O")
0.825
>>> experimental_result("CC[C@H]1OC(=O)[C@H](C)[C@@H](O[C@H]2C[C@@](C)(OC)[C@@H](O)[C@H](C)O2)[C@H](C)[C@@H](O[C@@H]2O[C@H](C)C[C@H](N(C)C)[C@H]2O)[C@](C)(O)C[C@@H](C)CN(C)[C@H](C)[C@@H](O)[C@]1(C)O")
0.00697

* * *

# System: Salmonella enterica serovar Typhimurium SL1344
# measurement-protocol: normalized intracellular growth (luminescence, IQM-normalized) in RAW264.7 macrophages (fraction of plate interquartile mean); higher = more bacterial growth (less inhibition)
# protocol-conditions: 10 µM, time point: T3 (3 h)
The full ranking holds about 1,600 compounds; the median of “normalized intracellular growth (luminescence, IQM-normalized) in RAW264.7 macrophages” is about 1, and the lowest 2% start at about 0.43. Only a selection was taken, and the lowest values are over-represented in it overall.
measure-name: normalized intracellular growth

>>> experimental_result("O=S(=O)(O)CCSSCCS(=O)(=O)O")
1.02
>>> experimental_result("CCOC(=S)SSC(=S)OCC")
0.994
>>> experimental_result("OC[C@H]1O[C@@H](O[C@H]2[C@H](O)[C@@H](O)C(O)O[C@@H]2CO)[C@H](O)[C@@H](O)[C@H]1O (stereo not given in full)")
1.05
>>> experimental_result("Cc1ccc2c(Br)cc(Br)c(OC(=O)c3ccccc3)c2n1")
0.944
>>> experimental_result("OC[C@H]1O[C@H](O[C@H]2[C@H](O)[C@@H](O)C(O)O[C@@H]2CO)[C@H](O)[C@@H](O)[C@@H]1O (stereo not given in full)")
0.919
>>> experimental_result("N=c1ccn2c(n1)O[C@H]1[C@H](O)[C@@H](CO)O[C@H]12")
1
>>> experimental_result("CCCCC(CC)CCC(CC(C)C)OS(=O)(=O)O (stereo not given)")
1.03
>>> experimental_result("O=C1c2c(O)cc(CO)cc2C(OC2OC(CO)C(O)C(O)C2O)c2cccc(OC3OC(CO)C(O)C(O)C3O)c21 (stereo not given) [CASANTHRANOL [cascaroside A shown]]")
0.997
>>> experimental_result("OC[C@@H](O)[C@@H](O)CO")
0.947
>>> experimental_result("CC(=O)OCC(=O)[C@@]1(O)CC[C@H]2[C@@H]3CCC4=CC(=O)C=C[C@]4(C)[C@H]3[C@@H](O)C[C@@]21C")
0.822
>>> experimental_result("CC(=O)OCC(=O)[C@@]1(O)[C@H](OC(C)=O)C[C@H]2[C@@H]3CCC4=CC(=O)C=C[C@]4(C)[C@@]3(F)[C@@H](O)C[C@@]21C")
0.823
>>> experimental_result("COC(=O)/C=C/C(=O)OC")
0.935
>>> experimental_result("CO/N=C1\\C[C@]2(C[C@@H]3C[C@@H](C/C=C(\\C)C[C@@H](C)/C=C/C=C4\\CO[C@@H]5[C@H](O)C(C)=C[C@@H](C(=O)O3)[C@]45O)O2)O[C@H](/C(C)=C/C(C)C)[C@H]1C")
0.979
>>> experimental_result("O.O.O=C([O-])CN(CCN(CC(=O)[O-])CC(=O)O)CC(=O)O.[Na+].[Na+]")
0.978
>>> experimental_result("C[C@H]1COc2c(N3CCN(C)CC3)c(F)cc3c(=O)c(C(=O)O)cn1c23")
1.25
>>> experimental_result("CC/C=C\\C/C=C\\C/C=C\\C/C=C\\C/C=C\\C/C=C\\CCC(=O)O")
0.977
>>> experimental_result("N[C@H]1C(O)O[C@H](CO)[C@@H](O)[C@@H]1O (stereo not given in full)")
0.967
>>> experimental_result("Nc1nccs1")
1.03
>>> experimental_result("CC(=O)N(CC(O)CO)c1c(I)c(C(=O)NCCO)c(I)c(C(=O)NCC(O)CO)c1I (stereo not given)")
0.938
>>> experimental_result("C[C@H]1C[C@@H]2[C@H]([C@@H](O)C[C@@]3(C)[C@H]2CC[C@]3(O)C(=O)CO)[C@@]2(C)C=CC(=O)C=C12")
1.07
>>> experimental_result("O=C1/C(=C/c2cccs2)CCC/C1=C\\c1cccs1")
0.973
>>> experimental_result("NC[C@@H]1CC[C@@H](N)[C@@H](O[C@H]2[C@H](O)[C@@H](O[C@H]3O[C@H](CO)[C@@H](O)[C@H](N)[C@H]3O)[C@H](N)C[C@@H]2N)O1")
1.04
>>> experimental_result("CC(O)CC(C)(C)O (stereo not given)")
1.05
>>> experimental_result("OC[C@H]1O[C@@H](O[C@@H]2[C@@H](CO)OC(O)(CO)[C@H]2O)[C@H](O)[C@@H](O)[C@H]1O (mixture of isomers)")
0.999
>>> experimental_result("CC1=CC(=O)NS(=O)(=O)O1")
1.06
>>> experimental_result("CC1(C)S[C@@H]2[C@H](N3C(=O)[C@@H](c4ccccc4)NC3(C)C)C(=O)N2[C@H]1C(=O)O")
1
>>> experimental_result("CCCCC(CC)COC(=O)CC(C(=O)OCC(CC)CCCC)S(=O)(=O)O (stereo not given)")
0.943
>>> experimental_result("CCCCC(CC)CN=C(N)N=C(N)NCCCCCCNC(N)=NC(N)=NCC(CC)CCCC (stereo not given)")
0.994
>>> experimental_result("NCCNCCNCCN")
0.972
>>> experimental_result("S=C1SCN(Cc2ccccc2)CN1Cc1ccccc1")
1.01
>>> experimental_result("C[C@H]1COc2c(C3(N)CC3)c(F)cc3c(=O)c(C(=O)O)cn1c23")
1.36
>>> experimental_result("Nc1ccc(S(=O)(=O)O)cc1.Nc1ccc(S(=O)(=O)O)cc1.[Zn]")
1.01
>>> experimental_result("CN1CCN(c2c(F)cc3c(=O)c(C(=O)O)cn4c3c2SCC4)CC1")
0.982
>>> experimental_result("CC1(C)[C@H]2CC[C@]1(CS(=O)(=O)O)C(=O)C2=Cc1ccc(C=C2C(=O)[C@@]3(CS(=O)(=O)O)CC[C@@H]2C3(C)C)cc1")
0.978
>>> experimental_result("CCN(CC)CCNC(=O)c1ccc(NC(C)=O)cc1")
1.03
>>> experimental_result("Cc1oc(=O)oc1CN1CCN(c2cc3c(cc2F)c(=O)c(C(=O)O)c2n3C(C)S2)CC1 (stereo not given)")
1.14
>>> experimental_result("FC(F)(F)C(Cl)Br (stereo not given)")
1
>>> experimental_result("CN(C)c1cnccn1")
0.967
>>> experimental_result("CC1COc2c(N3CCN(C)CC3)c(F)cc3c(=O)c(C(=O)O)cn1c23 (stereo not given)")
0.856
>>> experimental_result("CCCCC(CC)COC(=O)c1ccccc1O (stereo not given)")
1.05
